All values here come from ChEMBL document CHEMBL4689842.

Tested on: Fibroblast
Assay: Multiplex assay against human fibroblast
Format: toxicity, cell-based
Details: 48 h, 10 µM, compound concentration 10 uM, replicate 1
Exercise: state measured Population Membrane Permeable-Phenotype (%) for each of the compounds provided.
Quick reminder: number only, in %, skip the unit.

In: Query (compound): O=C1NCN(c2ccccc2)C12CCN(CCCOc1ccc(F)cc1)CC2 [SPIRAMIDE] ; field requested: Population Membrane Permeable-Phenotype (%)
Out: 3

In: Query (compound): NC(=O)Nc1cc(-c2cccc(F)c2)sc1C(=O)N[C@H]1CCCNC1 ; field requested: Population Membrane Permeable-Phenotype (%)
Out: 17

In: Query (compound): C=CC(=O)Nc1cccc(C(=O)Nc2ccc(Nc3cc(-c4[nH]c(SC)nc4C)ccn3)cc2)c1 ; field requested: Population Membrane Permeable-Phenotype (%)
Out: 11

In: Query (compound): Cn1cc(-c2[nH]c3cc(NC(=O)[C@H](N)C4CCCCC4)cc4c3c2C=NNC4=O)cn1 ; field requested: Population Membrane Permeable-Phenotype (%)
Out: 14

In: Query (compound): Cc1nc(-c2ccc(-c3ccc(C(=O)N4CCc5cc6c(cc54)C4(CCN(C)CC4)CO6)cc3)c(C)c2)no1 ; field requested: Population Membrane Permeable-Phenotype (%)
Out: 30

In: Query (compound): CN1CCN(c2ccc(OC(F)(F)F)c(Nc3ncc4c(n3)-c3c(c(C(N)=O)nn3CCO)CC4)c2)CC1 ; field requested: Population Membrane Permeable-Phenotype (%)
Out: 19

In: Query (compound): c1cn2cc(-c3ccc4cn[nH]c4c3)nc(Nc3ccc(N4CCOCC4)cc3)c2n1 ; field requested: Population Membrane Permeable-Phenotype (%)
Out: 14

In: Query (compound): Cc1cc(C)cc(-c2cnc3cc(Cl)c(-c4cccc(O)c4)cc3c2OCCCN)c1 ; field requested: Population Membrane Permeable-Phenotype (%)
Out: 37
